Recorded values, source PubChem BioAssay AID2060500.

- Tested on: 596521-263-R-J1-PDC complex spheroids, viability % of control
- assayText: Anticancer human tumor 596521-263-R-J1-PDC patient-derived soft tissue sarcoma cell line growth inhibition [GQUAD]; active means viability on the fitted dose curve at most 10% of control; inactive means the rest
- conditions: second compound 0.0316 µM; first compound 1 µM
Outcomes: active, inactive

1. Cc1cccc(N(C)C(=O)C2C(O)CCN2c2nc(C)cc(C(F)(F)F)c2C#N)c1 (stereo not given) + CN(C)c1ccc(Nc2c3ccc(NC(=O)CCN4CCCC4)cc3nc3cc(NC(=O)CCN4CCCC4)ccc23)cc1 ... inactive
2. O=c1[nH]cc(F)c(=O)[nH]1 + CN(C)c1ccc(Nc2c3ccc(NC(=O)CCN4CCCC4)cc3nc3cc(NC(=O)CCN4CCCC4)ccc23)cc1 ... inactive
3. CC(C)n1c(=O)n(C)c2cnc3cc(F)c(-c4ccc(OCCCN5CCCCC5)nc4)cc3c21 + Cc1cnc(CNC(=O)c2c(=O)c3ccc(N4CCCN(C)CC4)nc3n3c2sc2ccccc23)cn1 ... inactive
4. CC1COCCN1c1cc(-c2ccnn2C)c2ccnc(-c3ccn[nH]3)c2n1 (stereo not given) + CN(C)c1ccc(Nc2c3ccc(NC(=O)CCN4CCCC4)cc3nc3cc(NC(=O)CCN4CCCC4)ccc23)cc1 ... inactive
5. CC1COCCN1c1cc(C2(S(C)(=N)=O)CC2)nc(-c2ccnc3[nH]ccc23)n1 (stereo not given) + Cc1cnc(CNC(=O)c2c(=O)c3ccc(N4CCCN(C)CC4)nc3n3c2sc2ccccc23)cn1 ... inactive
6. CCCS(=O)(=O)Nc1ccc(F)c(C(=O)c2c[nH]c3ncc(-c4ccc(Cl)cc4)cc23)c1F + CN(C)c1ccc(Nc2c3ccc(NC(=O)CCN4CCCC4)cc3nc3cc(NC(=O)CCN4CCCC4)ccc23)cc1 ... inactive
7. C=CC(=O)N1CCN(c2nc(=O)n(-c3c(C)ccnc3C(C)C)c3nc(-c4c(O)cccc4F)c(F)cc23)C(C)C1 (stereo not given) + Cc1[nH]c2ccc(F)cc2c1-c1nc2c3cccnc3c3ncccc3c2[nH]1 ... inactive
8. COc1ccc([C@@H](O)c2cc(-c3ncnc4cc(N5CCOCC5)ccc34)c(F)cc2Cl)nn1 + Cc1[nH]c2ccc(F)cc2c1-c1nc2c3cccnc3c3ncccc3c2[nH]1 ... inactive
9. COc1cccc2c1C(=O)c1c(O)c3c(c(O)c1C2=O)CC(O)(C(=O)CO)CC3OC1CC(N)C(O)C(C)O1 (stereo not given) + CN(C)c1ccc(Nc2c3ccc(NC(=O)CCN4CCCC4)cc3nc3cc(NC(=O)CCN4CCCC4)ccc23)cc1 ... inactive
10. CC(C)(O)C1CCC(Nc2ccc3ncc(-c4cccc(C(F)(F)F)c4)n3n2)CC1 (stereo not given) + Cc1cnc(CNC(=O)c2c(=O)c3ccc(N4CCCN(C)CC4)nc3n3c2sc2ccccc23)cn1 ... inactive
11. O=C(NO)c1cnc(N2CCN(S(=O)(=O)c3ccc4ccccc4c3)CC2)nc1 + Cc1cnc(CNC(=O)c2c(=O)c3ccc(N4CCCN(C)CC4)nc3n3c2sc2ccccc23)cn1 ... active
12. Cc1cccc(N(C)C(=O)C2C(O)CCN2c2nc(C)cc(C(F)(F)F)c2C#N)c1 (stereo not given) + Cc1[nH]c2ccc(F)cc2c1-c1nc2c3cccnc3c3ncccc3c2[nH]1 ... inactive
13. Nc1ccn(C2OC(CO)C(O)C2(F)F)c(=O)n1 (stereo not given) + Cc1[nH]c2ccc(F)cc2c1-c1nc2c3cccnc3c3ncccc3c2[nH]1 ... inactive
14. O=C(c1cc(Cc2n[nH]c(=O)c3ccccc23)ccc1F)N1CCN(C(=O)C2CC2)CC1 + Cc1[nH]c2ccc(F)cc2c1-c1nc2c3cccnc3c3ncccc3c2[nH]1 ... inactive
15. O=C(c1cc(Cc2n[nH]c(=O)c3ccccc23)ccc1F)N1CCN(C(=O)C2CC2)CC1 + Cc1cnc(CNC(=O)c2c(=O)c3ccc(N4CCCN(C)CC4)nc3n3c2sc2ccccc23)cn1 ... inactive
16. C=CCn1c(=O)c2cnc(Nc3ccc(N4CCN(C)CC4)cc3)nc2n1-c1cccc(C(C)(C)O)n1 + CN(C)c1ccc(Nc2c3ccc(NC(=O)CCN4CCCC4)cc3nc3cc(NC(=O)CCN4CCCC4)ccc23)cc1 ... inactive
17. C#Cc1c(F)ccc2cc(O)cc(-c3ncc4c(N5CC6CCC(C5)N6)nc(OCC56CCCN5CC(F)C6)nc4c3F)c12 (stereo not given) + CN(C)c1ccc(Nc2c3ccc(NC(=O)CCN4CCCC4)cc3nc3cc(NC(=O)CCN4CCCC4)ccc23)cc1 ... inactive
18. CC(=O)O[C@H]1C(=O)[C@@]2(C)[C@H]([C@H](OC(=O)c3ccccc3)[C@]3(O)C[C@H](OC(=O)[C@H](O)[C@@H](NC(=O)c4ccccc4)c4ccccc4)C(C)=C1C3(C)C)[C@]1(OC(C)=O)CO[C@@H]1C[C@@H]2O + CN(C)c1ccc(Nc2c3ccc(NC(=O)CCN4CCCC4)cc3nc3cc(NC(=O)CCN4CCCC4)ccc23)cc1 ... inactive
19. CC1COCCN1c1cc(-c2ccnn2C)c2ccnc(-c3ccn[nH]3)c2n1 (stereo not given) + Cc1cnc(CNC(=O)c2c(=O)c3ccc(N4CCCN(C)CC4)nc3n3c2sc2ccccc23)cn1 ... inactive
20. C=CCn1c(=O)c2cnc(Nc3ccc(N4CCN(C)CC4)cc3)nc2n1-c1cccc(C(C)(C)O)n1 + Cc1cnc(CNC(=O)c2c(=O)c3ccc(N4CCCN(C)CC4)nc3n3c2sc2ccccc23)cn1 ... inactive

====

- System: 596521-263-R-J1-PDC complex spheroids, viability % of control
- assayText: Anticancer human tumor 596521-263-R-J1-PDC cell line growth inhibition [GQUAD];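 further: spheroids exposed to drugs for 7 days before viability reading; 100% = DMSO vehicle control viability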
- conditions: second compound 0.0316 µM; first compound 0.0316 µM; hits give low values
endpointName: viability, T/C (%)

1) CC(C)n1c(=O)n(C)c2cnc3cc(F)c(-c4ccc(OCCCN5CCCCC5)nc4)cc3c21 + Cc1cnc(CNC(=O)c2c(=O)c3ccc(N4CCCN(C)CC4)nc3n3c2sc2ccccc23)cn1 ... 82.1
2) Nc1ccn(C2OC(CO)C(O)C2(F)F)c(=O)n1 (stereo not given) + Cc1cnc(CNC(=O)c2c(=O)c3ccc(N4CCCN(C)CC4)nc3n3c2sc2ccccc23)cn1 ... 58.3
3) O=C(c1cc(Cc2n[nH]c(=O)c3ccccc23)ccc1F)N1CCN(C(=O)C2CC2)CC1 + Cc1cnc(CNC(=O)c2c(=O)c3ccc(N4CCCN(C)CC4)nc3n3c2sc2ccccc23)cn1 ... 92
4) COc1cc(C2c3cc4c(cc3C(OC3OC5COC(C)OC5C(O)C3O)C3COC(=O)C23)OCO4)cc(OC)c1O (stereo not given) + Cc1cnc(CNC(=O)c2c(=O)c3ccc(N4CCCN(C)CC4)nc3n3c2sc2ccccc23)cn1 ... 99.8
5) CCc1c2c(nc3ccc(O)cc13)-c1cc3c(c(=O)n1C2)COC(=O)[C@]3(O)CC + CN(C)c1ccc(Nc2c3ccc(NC(=O)CCN4CCCC4)cc3nc3cc(NC(=O)CCN4CCCC4)ccc23)cc1 ... 28.7
6) CC(=O)O[C@H]1C(=O)[C@@]2(C)[C@H]([C@H](OC(=O)c3ccccc3)[C@]3(O)C[C@H](OC(=O)[C@H](O)[C@@H](NC(=O)c4ccccc4)c4ccccc4)C(C)=C1C3(C)C)[C@]1(OC(C)=O)CO[C@@H]1C[C@@H]2O + CN(C)c1ccc(Nc2c3ccc(NC(=O)CCN4CCCC4)cc3nc3cc(NC(=O)CCN4CCCC4)ccc23)cc1 ... 40.7
7) COc1ncnc(C2CC2)c1-c1ncc2cnn(Cc3ccc(-c4nc(C(F)(F)F)cn4C(C)C)cc3)c2n1 + Cc1cnc(CNC(=O)c2c(=O)c3ccc(N4CCCN(C)CC4)nc3n3c2sc2ccccc23)cn1 ... 90.2
8) CC1COCCN1c1cc(-c2ccnn2C)c2ccnc(-c3ccn[nH]3)c2n1 (stereo not given) + Cc1cnc(CNC(=O)c2c(=O)c3ccc(N4CCCN(C)CC4)nc3n3c2sc2ccccc23)cn1 ... 55.9
9) CC1COCCN1c1cc(-c2ccnn2C)c2ccnc(-c3ccn[nH]3)c2n1 (stereo not given) + Cc1[nH]c2ccc(F)cc2c1-c1nc2c3cccnc3c3ncccc3c2[nH]1 ... 84.3
10) CC(C)(O)C1CCC(Nc2ccc3ncc(-c4cccc(C(F)(F)F)c4)n3n2)CC1 (stereo not given) + CN(C)c1ccc(Nc2c3ccc(NC(=O)CCN4CCCC4)cc3nc3cc(NC(=O)CCN4CCCC4)ccc23)cc1 ... 96.8

====

viability, T/C values by entry
- Test system: 596521-263-R-J1-PDC complex spheroids, viability % of control
- assayText: Anticancer human tumor 596521-263-R-J1-PDC cell line growth inhibition [GQUAD];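 further: spheroids exposed to drugs for 7 days before viability reading; 100% = DMSO vehicle control viability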
- conditions: second compound 10 µM; first compound 10 µM; hits give low values
endpointName: viability, T/C

1) O=c1[nH]cc(F)c(=O)[nH]1 + CN(C)c1ccc(Nc2c3ccc(NC(=O)CCN4CCCC4)cc3nc3cc(NC(=O)CCN4CCCC4)ccc23)cc1 ... 64.1%
2) CC(C)n1c(=O)n(C)c2cnc3cc(F)c(-c4ccc(OCCCN5CCCCC5)nc4)cc3c21 + Cc1[nH]c2ccc(F)cc2c1-c1nc2c3cccnc3c3ncccc3c2[nH]1 ... 50.7%
3) C=CC(=O)N1CCN(c2nc(=O)n(-c3c(C)ccnc3C(C)C)c3nc(-c4c(O)cccc4F)c(F)cc23)C(C)C1 (stereo not drawn) + Cc1[nH]c2ccc(F)cc2c1-c1nc2c3cccnc3c3ncccc3c2[nH]1 ... 56.4%
